Cited source for all entries: patent US9006426B2

Below, each entry is listed with its recorded IC50.
Test system: A2780 cells
Experiment: In vitro cell proliferation assay (WST-1 assay)
Type: cell-based
Conditions: Homo sapiens, total incubation time 72 h, WST-1 reagent
Structures can show the parent of a compound that is named as a salt.

compound: O=c1c(NCCCCCCS(=O)(=O)N(OCCN2CCOCC2)C2CCCCC2)c(Nc2ccncc2)c1=O [Compound 1051, oxalate]
assay target: A2780 cells
IC50 [nM]: 0.45

compound: O=c1c(NCCCCCCS(=O)(=O)N(CCCN2CCOCC2)C2CCCCC2)c(Nc2ccncc2)c1=O
assay target: A2780 cells
IC50 [nM]: 1.19

compound: O=C(NCCCCCNc1c(Nc2ccncc2)c(=O)c1=O)N(OCCN1CCOCC1)C1CCCCC1
assay target: A2780 cells
IC50 [nM]: 4.49

compound: O=c1c(NCCCCCS(=O)(=O)N(OCCN2CCOCC2)C2CCCC2)c(Nc2ccncc2)c1=O
assay target: A2780 cells
IC50 [nM]: 0.42

compound: COCCOCCOCCN(OCCC1CCCCC1)S(=O)(=O)CCCCCCNc1c(Nc2ccncc2)c(=O)c1=O
assay target: A2780 cells
IC50 [nM]: 0.48

compound: CN(C1CCCCCC1)S(=O)(=O)CCCCCCNc1c(Nc2ccncc2)c(=O)c1=O
assay target: A2780 cells
IC50 [nM]: 0.08

compound: O=c1c(NCCCCCCS(=O)(=O)N(CCCN2CCOCC2)C2CCC2)c(Nc2ccncc2)c1=O
assay target: A2780 cells
IC50 [nM]: 0.42

compound: O=c1c(NCCCCCCS(=O)(=O)N2CCCCCC2)c(Nc2ccncc2)c1=O
assay target: A2780 cells
IC50 [nM]: 0.53

compound: O=c1c(NCCCCCCS(=O)(=O)N(OCCN2CCOCC2)C2CCCCCC2)c(Nc2ccncc2)c1=O
assay target: A2780 cells
IC50 [nM]: 0.69

compound: O=c1c(NCCCCCCS(=O)(=O)N(CCN2CCOCC2)OCCC2CCCCC2)c(Nc2ccncc2)c1=O
assay target: A2780 cells
IC50 [nM]: 0.43

compound: O=C(CCCCCCCNc1c(Nc2ccncc2)c(=O)c1=O)N(Cc1ccccc1)OCCN1CCOCC1
assay target: A2780 cells
IC50 [nM]: 0.26

compound: O=c1c(NCCCCCCS(=O)(=O)N(CCN2CCOCC2)OCc2ccccc2)c(Nc2ccncc2)c1=O
assay target: A2780 cells
IC50 [nM]: 0.066

compound: O=C(CCCCCCNc1c(Nc2ccncc2)c(=O)c1=O)N(OCCN1CCOCC1)C1CCCCC1
assay target: A2780 cells
IC50 [nM]: 0.03

compound: O=C(OCCCCCNc1c(Nc2ccncc2)c(=O)c1=O)N(OCCN1CCOCC1)C1CCCCC1
assay target: A2780 cells
IC50 [nM]: 0.6

compound: O=c1c(NCCCCCS(=O)(=O)N(OCCN2CCOCC2)C2CCCCC2)c(Nc2ccncc2)c1=O
assay target: A2780 cells
IC50 [nM]: 0.5

compound: O=c1c(NCCCCCCS(=O)(=O)N(OCCN2CCOCC2)C2CCCC2)c(Nc2ccncc2)c1=O
assay target: A2780 cells
IC50 [nM]: 0.75

compound: CN(OCCC1CCCCC1)S(=O)(=O)CCCCCCNc1c(Nc2ccncc2)c(=O)c1=O
assay target: A2780 cells
IC50 [nM]: 0.085

compound: O=c1c(NCCCCCCS(=O)(=O)N(CCN2CCOCC2)c2ccc(Cl)cc2)c(Nc2ccncc2)c1=O
assay target: A2780 cells
IC50 [nM]: 0.66

compound: O=c1c(NCCCCCCS(=O)(=O)N(Cc2ccccc2)OCCC2CCCCC2)c(Nc2ccncc2)c1=O
assay target: A2780 cells
IC50 [nM]: 0.93

compound: O=c1c(NCCCCCCS(=O)(=O)N(CCCN2CCOCC2)CCN2CCOCC2)c(Nc2ccncc2)c1=O
assay target: A2780 cells
IC50 [nM]: 26

compound: O=c1c(NCCCCCCS(=O)(=O)N2CCOCC2)c(Nc2ccncc2)c1=O
assay target: A2780 cells
IC50 [nM]: 41.3

compound: CC(C)N(OCCN1CCOCC1)S(=O)(=O)CCCCCCNc1c(Nc2ccncc2)c(=O)c1=O
assay target: A2780 cells
IC50 [nM]: 0.12

compound: O=c1c(NCCCCCCS(=O)(=O)N(CCN2CCOCC2)C2CCCCCC2)c(Nc2ccncc2)c1=O
assay target: A2780 cells
IC50 [nM]: 0.25

compound: CN(OCc1ccccc1)S(=O)(=O)CCCCCCNc1c(Nc2ccncc2)c(=O)c1=O
assay target: A2780 cells
IC50 [nM]: 0.25

compound: O=C(CCCCCCNc1c(Nc2cccnc2)c(=O)c1=O)N(OCCN1CCOCC1)C1CCCCC1
assay target: A2780 cells
IC50 [nM]: 0.6

compound: CCOP(=O)(CCCCCCNc1c(Nc2ccncc2)c(=O)c1=O)NC1CCCCC1 (centres unmarked)
assay target: A2780 cells
IC50 [nM]: 0.18

compound: O=c1c(NCCCCCCCS(=O)(=O)N(OCCN2CCOCC2)C2CCCCC2)c(Nc2ccncc2)c1=O
assay target: A2780 cells
IC50 [nM]: 0.3

compound: O=c1c(NCCCCCCS(=O)(=O)N(CCN2CCOCC2)C2CCCCC2)c(Nc2ccncc2)c1=O
assay target: A2780 cells
IC50 [nM]: 1.13

compound: O=C(CCCCCCNc1c(Nc2ccncc2)c(=O)c1=O)N(Cc1ccccc1)OCCN1CCOCC1
assay target: A2780 cells
IC50 [nM]: 0.56
